Exercise: for every item that follows, state its recorded CMV-LACZ in Myotubes, signal relative to DMSO.
# Tested on: β-galactosidase in CMV-LacZ C2C12 myotubes
# Assay Explanation: CMV-LacZ secondary screen in C2C12 myotubes (β-Gal stabilizing assay)
# Type: cell-based, mouse
# Measurement Conditions: 10 uM; C2C12 CMV-LacZ myotubes; fold relative to DMSO
Numbers only.

Compound: COc1cc(NC(=O)OCc2ccccc2)c2ncccc2c1
Test Value: 1.0227

For every item in the list below, what is its measured CMV-LACZ in Myotubes, signal relative to DMSO?
1. O=C(O)c1cc(-c2ccccc2Cl)n(-c2cccc(Cl)c2)n1
2. Cn1c(=O)c2c(nc(Sc3ncnn3CC(=O)NC3CCCCC3)n2C)n(C)c1=O

Response:
1: 0.9795; 2: 0.9788

For every item in the list below, what is its measured CMV-LACZ in Myotubes, signal relative to DMSO?
1. CC1CCCCC1NC(=O)CSc1nnc(COc2ccc(Cl)cc2)o1 (stereo not shown)
2. COc1ccc(Cl)cc1NC(=O)CC(=O)Nc1cc(Cl)ccc1OC

Response:
1: 1.1022; 2: 1.1553

For every item in the list below, what is its measured CMV-LACZ in Myotubes, signal relative to DMSO?
1. Br.COc1ccc(C(=O)CN2CCCCC2)cc1
2. COc1cc(C=O)ccc1OCC(=O)Nc1ccc2c(c1)OCO2

Response:
[0.9501, 0.9279]
